# systemTested: IKKε (Homo sapiens)
# Construct: His-tag; made in house; host or cells: Sf9 insect cells
# Sequence (Q14164 whole entry): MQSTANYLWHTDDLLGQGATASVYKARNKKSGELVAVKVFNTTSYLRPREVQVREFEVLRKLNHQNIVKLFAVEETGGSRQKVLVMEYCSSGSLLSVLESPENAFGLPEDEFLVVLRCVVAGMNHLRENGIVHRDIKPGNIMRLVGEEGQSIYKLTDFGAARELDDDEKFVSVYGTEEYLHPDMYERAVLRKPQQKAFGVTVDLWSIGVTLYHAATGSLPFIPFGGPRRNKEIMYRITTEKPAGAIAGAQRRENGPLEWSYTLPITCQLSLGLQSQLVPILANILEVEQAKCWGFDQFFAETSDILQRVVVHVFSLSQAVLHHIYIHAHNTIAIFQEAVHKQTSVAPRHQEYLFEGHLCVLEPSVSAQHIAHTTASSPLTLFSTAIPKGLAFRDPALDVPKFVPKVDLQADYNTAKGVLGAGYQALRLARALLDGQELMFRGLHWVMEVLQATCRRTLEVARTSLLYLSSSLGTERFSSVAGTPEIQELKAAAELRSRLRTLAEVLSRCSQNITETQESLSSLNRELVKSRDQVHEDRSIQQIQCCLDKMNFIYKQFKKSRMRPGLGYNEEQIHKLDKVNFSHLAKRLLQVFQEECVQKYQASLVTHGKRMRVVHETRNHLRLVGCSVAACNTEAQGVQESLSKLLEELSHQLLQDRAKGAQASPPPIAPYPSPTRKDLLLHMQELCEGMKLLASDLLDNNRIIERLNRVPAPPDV
# assayExplanation: In-vitro IKKε kinase assay ([γ33]ATP filter-plate)
# Type: biochemical
# measurementSetup: text bins; read-out: IC50 for inhibition of the kinase activity of IKKε
IC50 values, listed per item
reportedMetric: IC50

molecule: N#Cc1cc(-c2ccnc(Nc3ccc(N4CCOCC4)cc3)n2)ccc1OC1CCN(C(=O)C(F)(F)F)CC1
reportedMetric: IC50
measuredResult: 5 to 50 nM
//
molecule: N#Cc1cc(-c2ccnc(Nc3ccc(N4CCOCC4)cc3)n2)ccc1NCc1cccnc1
reportedMetric: IC50
measuredResult: 5 to 50 nM
//
molecule: CC(=O)N1CCC(CCOc2ccc(-c3ccnc(Nc4ccc(N5CCOCC5)cc4)n3)cc2C#N)CC1
reportedMetric: IC50
measuredResult: 5 to 50 nM
//
molecule: COc1ccc(-c2ccnc(Nc3ccc(NC(=O)NCCCN)cc3)n2)cc1C#N
reportedMetric: IC50
measuredResult: 50 to 500 nM
//
molecule: N#Cc1cc(-c2ccnc(Nc3ccc(F)c(OC4CCNC4)c3)n2)ccc1OC1CCOCC1 (centres unmarked)
reportedMetric: IC50
measuredResult: < 5 nM
